# methodDescription: Plasma pharmacokinetics of XL184 and metabolites by LC/MS/MS method
# assayContext: human, in vivo, po, 175 mg, Plasma concentration of XL184 by LC/MS/MS, single 175 mg oral XL184 L-malate, healthy male subjects, […], individual subject
# Procedure: Pharmacokinetics: Serial blood, urine, and feces were collected at specified times following dosing. All samples collected for radioactivity analysis were analyzed for total radioactivity. Detailed reports of the bioanalytical methodologies and results accompany the clinical study report. The other minor metabolite in plasma, p-Fluoroaniline, was analyzed by Exelixis using a validated LC/MS/MS method. PK variables were computed using WinNonlin Professional, version 5.2.
parameterMeasured: concentration at 48 h (ng/mL)
Provide only the numeric value, understood in ng/mL.

Return reported concentration at 48 h; argument: COc1cc2nccc(Oc3ccc(NC(=O)C4(C(=O)Nc5ccc(F)cc5)CC4)cc3)c2cc1OC [XL184] 352

Numbers sourced from patent US11504362B2.
